Test system: ACHN renal
experiment.description: NCI tumour cell line growth inhibition, 48 h

compound	TGI
COc1cc2c(c(OC)c1O)-c1ccc(SC)c(=O)cc1C(NC(C)=O)CC2 (stereo unspecified)	> 100 µM
CC(=O)NC1=C(NCC(C)(C)C)C(=O)c2ccccc2C1=O	74.5 µM
COc1ccc(N2CN3OC(=O)N(c4ccc(OC)cc4)[C@@]3(c3ccccc3)C2)cc1	> 100 µM
Cc1ccc(Nc2nc(=O)c3c4ccccc4n(C(=O)OC(C)(C)C)c3s2)cc1	> 100 µM
CSc1ccc(/C=C2\CN(C)C/C(=C\c3ccc(SC)cc3)C2=O)cc1	> 100 µM
COc1ccc2c(c1)CC[C@@H]1[C@@H]2CC[C@]2(C)C(=O)/C(=C/c3ccc(N(C)C)cc3)C[C@@H]12	> 100 µM
CCOc1ccccc1-n1c(CN2CCN(C(=O)COc3ccc(CNCCCCCCN4C5CCCC4CC(OC(=O)Nc4cc(C)ccc4OC)C5)cc3)CC2)nc2ccccc2c1=O (stereo unspecified)	5.9 µM
COc1cccc(NC(=O)CC(=O)n2nc(C)c(N=Nc3ccccc3)c2C)c1	> 100 µM
COc1ccccc1CCN1CCN(CCCc2ccccc2)CC1	> 100 µM
Oc1ccc(Cl)cc1-c1cc(-c2ccccc2Cl)[nH]n1	> 100 µM
CN1CCc2cc3c(c4c2C1C(O)c1ccccc1-4)OCO3 (stereo unspecified)	> 100 µM
CSc1ccccc1C#C/C=C\C#Cc1ccccc1N1CCCC1=O	> 50 µM
C[C@@H](CS(C)(=O)=O)Nc1ncc2cc(Oc3ccc(F)cc3F)c(=O)n(C)c2n1	> 25 µM
O=C(O)CCSC(=O)Nc1cccc(F)c1	> 100 µM
COc1cc2c(cc1OC)[C@@H]1[C@H](C#N)C(=O)C(C)(C)N1CC2	> 100 µM
O=[S@@]1Nc2ccc(Br)cc2S1	> 100 µM
C=CCc1cc(OC)c2c(c1)C(O)CC(c1ccc(OC)c(OC)c1)O2 (stereo unspecified)	> 100 µM
CO[C@]1(c2ccc([N+](=O)[O-])cc2)Oc2ccccc2C(=O)[C@@]1(Nc1ccc(C=O)cc1)OC	> 10 µM
COc1ccc2c(c1)C1(C=N2)CCN(C(C)=O)CC1	> 100 µM
Clc1cccc(Cc2cn3cc(-c4ccccc4)nc3s2)c1Cl	> 100 µM
COc1ccc(/C=c2/sc3n(c2=O)C(c2ccccc2)C2(O)CCCCC2N=3)cc1 (stereo unspecified)	> 12.5 µM
